- procedure-summary: Probe fluorescence ratio response to arachidonic acid relative to ADIFAB2
- Type: binding
- measurement-setup: arachidonic acid; response relative to ADIFAB2
property-name: DR/DR AA

Example molecules with recorded DR/DR AA:
72F (protein, listed as Rattus norvegicus, PEPTIDE (1)...(131) wild-type rat intestinal fatty acid binding protein) AFDGTWKVDRNENYEKFMEKMGINVVKRKLGAHDNLKLTITQEGNKFTVKESSNFRNIDVVFELGVDFAYSFADGTELTGTWTMEGNKLVGKFKRVDNGKELIAVREISGNELIQTYTYEGVEAKRIFKKE    0.401
117K, 72A (protein, listed as Rattus norvegicus, PEPTIDE (1)...(131) wild-type rat intestinal fatty acid binding protein) AFDGTWKVDRNENYEKFMEKMGINVVKRKLGAHDNLKLTITQEGNKFTVKESSNFRNIDVVFELGVDFAYSAADGTELTGTWTMEGNKLVGKFKRVDNGKELIAVREISGNELIQTKTYEGVEAKRIFKKE    0.34

Now for a further molecule.
Record 17F, 72A (protein, listed as Rattus norvegicus, PEPTIDE (1)...(131) wild-type rat intestinal fatty acid binding protein) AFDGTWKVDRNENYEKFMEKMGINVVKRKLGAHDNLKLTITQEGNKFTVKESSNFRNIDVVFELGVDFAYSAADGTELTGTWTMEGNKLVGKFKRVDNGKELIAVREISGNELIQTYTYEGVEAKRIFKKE , field DR/DR AA: 1.37

Source of measurements: patent US20060257938A1
